Values compiled from patent US20230192705A1.

# target_system: UniProt Q06124
# method: SHP2 allosteric inhibitor enzyme activity assay (DiFMUP fluorescence)
# Format: biochemical
# experimental_parameters: class symbols
pIC50: −log10 of the molar value.
Provide the recorded pIC50 for the entries that follow.

Return value of pIC50 for input COc1cccc(C2(c3n[nH]c4nc(N5CCC6(CC5)CO[C@@H](C)[C@H]6N)[nH]c(=O)c34)CC2)c1 , no commentary.
7.22 to 7.70

Output measured pIC50 for this item: C[C@@H]1OCC2(CCN(c3ncc(C4(c5ccccc5)CC4)nc3CO)CC2)[C@@H]1N
< 7.22

Answer with the recorded pIC50 of N[C@@H]1c2ccccc2CC12CCN(c1nc3[nH]nc(C4(c5cnccn5)CC4)c3c(=O)[nH]1)CC2 only.
≥ 7.70

Output pIC50 of C[C@@H]1OCC2(CCN(c3nc4[nH]nc(C5(c6ccc(F)cc6)CC5)c4c(=O)[nH]3)CC2)[C@@H]1N
7.22 to 7.70

Output measured pIC50 for this item: N[C@@H]1Cc2ccccc2C12CCN(c1nc3[nH]nc(C4(c5ccccc5)CC4)c3c(=O)[nH]1)CC2
7.22 to 7.70

Give the reported value of pIC50 for this record: CC1(C)C=C(c2n[nH]c3nc(N4CCC5(CC4)Cc4ccccc4[C@H]5N)[nH]c(=O)c23)c2cnc(C3CC3)nc2C1
7.22 to 7.70

Look up pIC50 of CC1(C)C=C(c2n[nH]c3nc(N4CCC5(CC4)Cc4ccccc4[C@H]5N)[nH]c(=O)c23)c2cc(Br)cnc2C1 and report it.
≥ 7.70

For the molecule CC1(C)C=C(c2n[nH]c3nc(N4CCC5(CC4)Cc4ccccc4C5N)[nH]c(=O)c23)c2sc(N)nc2C1 (centres unmarked) , report pIC50.
7.22 to 7.70

In one line, give reported pIC50 of the entry Nc1ccc(C2(c3n[nH]c4nc(N5CCC6(CC5)Cc5ccccc5[C@H]6N)[nH]c(=O)c34)CC2)cc1 .
≥ 7.70

Tell me measured pIC50 for C[C@@H]1OCC2(CCN(c3nc4[nH]nc(C5(c6ccc(C#N)cc6)CC5)c4c(=O)[nH]3)CC2)[C@@H]1N please.
7.22 to 7.70

Identify measured pIC50 corresponding to Nc1nccc(C2(c3n[nH]c4nc(N5CCC6(CC5)Cc5ccccc5[C@H]6N)[nH]c(=O)c34)CC2)c1F
≥ 7.70

Provide measured pIC50 value, entry: N[C@@H]1c2ccccc2CC12CCN(c1nc3[nH]nc(C4=CC(F)(F)c5ccccc54)c3c(=O)[nH]1)CC2
≥ 7.70

Please supply the value of reported pIC50 for the item N#Cc1cccc(C2(c3n[nH]c4nc(N5CCC6(CC5)Cc5ccccc5[C@H]6N)[nH]c(=O)c34)CC2)c1
≥ 7.70

In one line, give reported pIC50 of the entry C[C@@H]1OCC2(CCN(c3nc4[nH]nc(C5(c6ccc7c(c6)OC(F)(F)O7)CC5)c4c(=O)[nH]3)CC2)[C@@H]1N .
< 7.22

* * *

Please respond with reported pIC50 for every item in the list.
# target_system: SHP2 (Homo sapiens)
# method: SHP2 allosteric inhibitor enzyme activity assay (DiFMUP fluorescence)
# Assay type: biochemical
# experimental_parameters: class symbols
pIC50: −log10 of the molar value.

Item CC1(C)C=C(c2n[nH]c3nc(N4CCC5(CC4)Cc4ccccc4[C@H]5N)[nH]c(=O)c23)c2cn(C3CC3)nc2C1 : provide pIC50
7.22 to 7.70

Provide only the value of recorded pIC50 for N[C@@H]1c2ccccc2CC12CCN(c1nc3[nH]nc(C4(c5ccsc5)CC4)c3c(=O)[nH]1)CC2
≥ 7.70

Supply reported pIC50 belonging to this compound: N[C@@H]1c2ccccc2CC12CCN(c1nc3[nH]nc(C4CCCCc5ccccc54)c3c(=O)[nH]1)CC2 (stereo partly shown)
≥ 7.70

Answer with the recorded pIC50 for the compound listed here: Cn1ccc(-c2cc(C3(c4n[nH]c5nc(N6CCC7(CC6)Cc6ccccc6[C@H]7N)[nH]c(=O)c45)CC3)ccn2)n1
≥ 7.70

Return pIC50 (reported value) for this compound: COc1cccc(C2(c3n[nH]c4nc(N5CCC6(CC5)Cc5ccccc5[C@H]6N)[nH]c(=O)c34)CC2)c1
≥ 7.70

Specify measured pIC50 for C[C@@H]1OCC2(CCN(c3nc4[nH]nc(C5(c6cccs6)CC5)c4c(=O)[nH]3)CC2)[C@@H]1N .
7.22 to 7.70

// Input: N[C@@H]1c2ccccc2CC12CCN(c1nc3[nH]nc(C4(c5ncccn5)CC4)c3c(=O)[nH]1)CC2 . Output its pIC50 only.
≥ 7.70

* * *

Please respond with reported IC50 for every item in the list.
# target_system: SHP2 (Homo sapiens, UniProt Q06124)
# Sequence (Q06124 whole entry): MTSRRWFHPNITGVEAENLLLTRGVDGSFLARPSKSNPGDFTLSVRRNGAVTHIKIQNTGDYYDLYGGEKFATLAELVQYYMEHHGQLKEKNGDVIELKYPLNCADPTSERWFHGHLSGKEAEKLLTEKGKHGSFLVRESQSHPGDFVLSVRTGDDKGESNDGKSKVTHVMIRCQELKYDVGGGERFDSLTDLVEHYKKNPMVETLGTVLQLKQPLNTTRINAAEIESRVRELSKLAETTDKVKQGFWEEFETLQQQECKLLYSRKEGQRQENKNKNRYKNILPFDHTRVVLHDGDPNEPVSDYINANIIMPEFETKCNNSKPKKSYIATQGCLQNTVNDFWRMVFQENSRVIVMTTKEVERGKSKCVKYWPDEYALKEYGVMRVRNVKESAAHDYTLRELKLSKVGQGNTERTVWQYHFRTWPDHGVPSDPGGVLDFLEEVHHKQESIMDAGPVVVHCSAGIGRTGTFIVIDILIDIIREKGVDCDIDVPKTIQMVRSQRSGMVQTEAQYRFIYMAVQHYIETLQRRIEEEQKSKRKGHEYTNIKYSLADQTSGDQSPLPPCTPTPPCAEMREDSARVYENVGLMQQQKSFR
# method: SHP2 allosteric inhibitor enzyme activity assay (DiFMUP fluorescence)
# Format: biochemical
# experimental_parameters: class symbols

Report the value of IC50 obtained on SHP2 (Homo sapiens, UniProt Q06124) for N[C@@H]1c2ccccc2CC12CCN(c1nc3[nH]nc(C4=CCCc5occc54)c3c(=O)[nH]1)CC2 .
≤ 20 nM

Enter recorded IC50 with SHP2 (Homo sapiens, UniProt Q06124) for N[C@@H]1c2ccccc2CC12CCN(c1nc3[nH]nc(C4(c5ccnc(NC6CCC6)c5Cl)CC4)c3c(=O)[nH]1)CC2 here.
≤ 20 nM

Report value only: IC50, SHP2 (Homo sapiens, UniProt Q06124), C[C@@H]1OCC2(CCN(c3nc4[nH]nc(C5(c6ccccc6)CC5)c4c(=O)n3C)CC2)[C@@H]1N
20 to 60 nM

Recall the reported IC50 of Cn1c2c(c3ccccc31)C(c1n[nH]c3nc(N4CCC5(CC4)Cc4ccccc4[C@H]5N)[nH]c(=O)c13)=CCC2 on SHP2 (Homo sapiens, UniProt Q06124) and write it down.
≤ 20 nM

Return reported IC50 for target or system SHP2 (Homo sapiens, UniProt Q06124), item N[C@@H]1c2ccccc2CC12CCN(c1nc3[nH]nc(C4(c5ccncc5)CC4)c3c(=O)[nH]1)CC2 .
≤ 20 nM

Provide SHP2 (Homo sapiens, UniProt Q06124) IC50 reading for N[C@@H]1c2cc(Cl)ccc2CC12CCN(c1nc3[nH]nc(C4(c5ccccc5)CC4)c3c(=O)[nH]1)CC2 .
≤ 20 nM

Jot down IC50 (SHP2 (Homo sapiens, UniProt Q06124)) of COc1cccc(C2(c3n[nH]c4nc(N5CCC6(CC5)Cc5ccccc5[C@H]6N)[nH]c(=O)c34)CCC2)c1 .
≤ 20 nM

Recall the reported IC50 of Cc1cc(C(F)F)c2c(n1)CCC=C2c1n[nH]c2nc(N3CCC4(CC3)Cc3ccccc3[C@H]4N)[nH]c(=O)c12 when tested on SHP2 (Homo sapiens, UniProt Q06124).
20 to 60 nM

Report its IC50 with SHP2 (Homo sapiens, UniProt Q06124) as the test system: COc1ccccc1C1(c2n[nH]c3nc(N4CCC5(CC4)Cc4ccccc4[C@H]5N)[nH]c(=O)c23)CC12CCCC2 (some centres unmarked)
20 to 60 nM

// output IC50; input N[C@@H]1c2ccccc2CC12CCN(c1nc3[nH]nc(-c4cc(=O)oc5ccccc45)c3c(=O)[nH]1)CC2 ; system SHP2 (Homo sapiens, UniProt Q06124)
≤ 20 nM

Name the value of IC50 reported for C[C@@H]1OCC2(CCN(c3nc4[nH]nc(C5(c6cccc(O)c6)CC5)c4c(=O)[nH]3)CC2)[C@@H]1N when tested on SHP2 (Homo sapiens, UniProt Q06124).
20 to 60 nM

Lab note: SHP2 (Homo sapiens, UniProt Q06124) assay, enter IC50 for C[C@@H]1OCC2(CCN(c3nc4[nH]nc(C5(c6ccccn6)CC5)c4c(=O)[nH]3)CC2)[C@@H]1N here
20 to 60 nM

Report IC50 on SHP2 (Homo sapiens, UniProt Q06124) for this entry: N[C@@H]1c2ccccc2CC12CCN(c1nc3[nH]nc(C4(c5ccnnc5)CC4)c3c(=O)[nH]1)CC2
≤ 20 nM

Tell me its IC50 on SHP2 (Homo sapiens, UniProt Q06124): Cc1cccc(C2(c3n[nH]c4nc(N5CCC6(CC5)CO[C@@H](C)[C@H]6N)[nH]c(=O)c34)CC2)c1
20 to 60 nM

* * *

# target_system: UniProtKB Q06124
# method: SHP2 allosteric inhibitor enzyme activity assay (DiFMUP fluorescence)
# Assay type: biochemical
# experimental_parameters: class symbols
property_label: IC50

Please list IC50 recorded for the compound NC1c2ccccc2CC12CCN(c1nc3[nH]nc(C4=CCCn5ccnc54)c3c(=O)[nH]1)CC2 (stereo not shown)
≤ 20 nM

Give IC50 for Cc1csc(C2(c3n[nH]c4nc(N5CCC6(CC5)CO[C@@H](C)[C@H]6N)[nH]c(=O)c34)CC2)n1
20 to 60 nM

Note IC50 for the compound shown: C[C@@H]1OCC2(CCN(c3nc4[nH]nc(C5(c6cccc(Cl)c6Cl)CC5)c4c(=O)[nH]3)CC2)[C@@H]1N
20 to 60 nM

Provide only the value of recorded IC50 for CCOC(=O)Nc1ccc(C2(c3n[nH]c4nc(N5CCC6(CC5)CO[C@@H](C)[C@H]6N)[nH]c(=O)c34)CC2)cc1
20 to 60 nM

Check the records and state IC50 for N[C@@H]1c2ccccc2CC12CCN(c1nc3[nH]nc(C4(c5nn[nH]n5)CC4)c3c(=O)[nH]1)CC2
≤ 20 nM

Determine from records and report IC50 for CC1(C)CC1(c1ccccc1)c1n[nH]c2nc(N3CCC4(CC3)Cc3ccccc3[C@H]4N)[nH]c(=O)c12 (stereo partly shown)
> 60 nM

Give recorded IC50. N[C@@H]1c2ccccc2CC12CCN(c1nc3[nH]nc(C4=CCCc5sccc54)c3c(=O)[nH]1)CC2
≤ 20 nM
